Could you please report measured inhibition in vivo at 10 mg/kg for the items listed next?
system: Dextran-induced edema formation in the ears of mice; test: Inhibition of Dextran-induced edema formation in the ears of mice; format: in vivo, male Swiss mice; conditions: Mus musculus, po, Column B, at 10 mg/kg body weight, 1 h before dextran, read-out: inhibition of Dextran-induced blueing of the ears of mice, % inhibition
Return type: number; implicit unit %.

Using the record for CC(C(=O)c1cccc(Cl)c1)n1ncn(-c2ccc(N3CCN(c4ccc(O)cc4)CC3)cc2)c1=O (stereo not shown) [Compound 7.37] , report its inhibition in vivo at 10 mg/kg.
73

# get_value(readout='inhibition in vivo at 10 mg/kg', item= CC(C(O)c1ccc(Br)cc1)n1ncn(-c2ccc(N3CCN(c4ccc(O)cc4)CC3)cc2)c1=O (stereo not shown) [Compound 7.35] )
79

What value of inhibition in vivo at 10 mg/kg has been reported for the following compound? CC(C(=O)c1ccc(Br)cc1)n1ncn(-c2ccc(N3CCN(c4ccc(O)cc4)CC3)cc2)c1=O (stereo not shown) [Compound 7.16]
91

For CC(C(O)c1ccc(Cl)cc1Cl)n1ncn(-c2ccc(N3CCN(c4ccc(O)cc4)CC3)cc2)c1=O (stereo not shown) [Compound 7.22] , what is its reported inhibition in vivo at 10 mg/kg?
94
